# Target or system: furin, P09958;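 also: purified furin at 1:10 enzyme:substrate in 50 mM HEPES pH 7.5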
# Sequence (P09958 whole entry): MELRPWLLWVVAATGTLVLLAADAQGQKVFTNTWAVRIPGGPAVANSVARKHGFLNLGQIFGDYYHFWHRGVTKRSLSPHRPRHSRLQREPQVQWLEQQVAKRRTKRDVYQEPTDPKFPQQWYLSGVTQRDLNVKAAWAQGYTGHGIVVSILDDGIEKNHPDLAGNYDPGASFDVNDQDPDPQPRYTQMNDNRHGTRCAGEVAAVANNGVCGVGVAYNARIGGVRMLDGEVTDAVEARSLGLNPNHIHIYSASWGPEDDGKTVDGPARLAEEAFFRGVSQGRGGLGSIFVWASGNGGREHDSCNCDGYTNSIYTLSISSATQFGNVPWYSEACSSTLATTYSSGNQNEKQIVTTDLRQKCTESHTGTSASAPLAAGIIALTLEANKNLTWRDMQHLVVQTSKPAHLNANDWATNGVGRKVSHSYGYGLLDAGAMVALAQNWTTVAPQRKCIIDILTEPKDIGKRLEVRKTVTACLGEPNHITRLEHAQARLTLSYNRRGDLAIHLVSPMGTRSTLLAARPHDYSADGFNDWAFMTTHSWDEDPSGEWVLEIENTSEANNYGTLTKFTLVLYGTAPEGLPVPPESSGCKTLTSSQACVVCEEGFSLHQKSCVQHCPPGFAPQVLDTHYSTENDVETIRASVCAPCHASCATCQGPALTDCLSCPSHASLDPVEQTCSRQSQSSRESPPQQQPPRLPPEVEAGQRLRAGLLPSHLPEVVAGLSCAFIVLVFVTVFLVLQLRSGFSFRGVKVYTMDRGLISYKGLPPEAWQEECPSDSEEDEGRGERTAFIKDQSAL
# Experimental protocol: furin cleavage Z-score vs untreated control; higher = more cleavage, active = 3.5 or more, inactive = 1 or less, 8 variable residues between constant flanks
# Test context: 7.5 min
Some of the results follow. The true hit rate is not given.
Note to self: values exactly at 0.9 are true (1). So furin cleavage Z-score at or above 0.9 is true (1), below is false (0).

[ask] State whether the measured furin cleavage Z-score reaches 0.9, counting equality as reaching it, for CAIQARAKRVAGNASASA [FS-256]
[reply] true (1)

[ask] API: above_or_equal(metric=furin cleavage Z-score, cutoff=0.9) for item CARRARVTDAAGNASASA [FS-2513]
[reply] false (0)

[ask] Quick check: does CARRARGADAAGNASASA [FS-2512] have furin cleavage Z-score greater than or equal to 0.9?
[reply] true (1)

[ask] # check: furin cleavage Z-score of CASLLRHHNLAGNASASA [HC1385] is greater than or equal to 0.9
[reply] false (0)

[ask] Say whether CARRKKSAPAAGNASASA [FS-2514] shows furin cleavage Z-score of 0.9 or more.
[reply] true (1)

[ask] Determine whether this sequence has furin cleavage Z-score no lower than 0.9: CAVAIKSLTEAGNASASA [HC1496]
[reply] false (0)
